Experimental Protocol: P-glycoprotein substrates identified in KB-8-5-11 adenocarcinoma cell line, qHTS therapeutic library screen (AID 1346987); further: nearly all actives have a fitted effect of over 65% in size; further: potency means the concentration at half of the fitted maximal effect
Condition Notes: KB-8-5-11 (P-gp overexpressing) viability, CellTiter-Glo, 72 h; series mostly up to 44.5 µM
Results filed as inconclusive are left out. The source made the active and inactive calls. The call rests on the fitted dose curve; in most records, active means well fitted inhibition curve with a large enough effect; inconclusive means small, poorly fitted or top-dose-only effect; inactive means flat fitted curve, though single readings scatter.
Attribute Measured: Potency

Some entries whose results are on file:
COc1ccc(-c2cnc3ccc(NCc4ccc(S(N)(=O)=O)cc4)nn23)cc1OC
inactive
CC(C)=CCC/C(C)=C/Cc1ccc(O)c(C2OC(=O)c3cc(C(=O)O)cc(O)c32)c1O (stereo unspecified)
inactive
Cc1ccc(S(=O)(=O)c2ccc([N+](=O)[O-])o2)cc1
4.61 µM (active)
COC(=O)CC(C)(O)CC(=O)OCc1ccc(O[C@@H]2O[C@H](CO)[C@@H](O)[C@H](O)[C@H]2O)cc1 (stereo partly specified)
inactive
CC(C)(C)c1ccc(S(=O)(=O)NCc2ccc(C(=O)Nc3cccnc3)cc2)cc1
1.16 µM (active)

Quick one: Potency for Cc1ccc(N)cc1O ? inactive

Record request: Potency value, item CC1=C(C(=O)O)/C(=C\CO[C@@H]2O[C@H](CO)[C@@H](O)[C@H](O)[C@H]2O)C(OC(=O)/C=C/c2ccc(O)cc2)C1 (stereo partly specified) inactive

Which Potency is reported for this compound? Cc1cc(C(=O)N2CCCCc3ccccc32)ccc1CNC(=O)N1CCC[C@H]1C(=O)N(C)C inactive

Entry CC[C@H](C)[C@H](NC(=O)[C@H]([C@@H](C)CC)N(C)C(C)=O)C(=O)N[C@H](C(=O)N[C@@H](CC(C)C)C(=O)[C@@]1(C)CO1)[C@@H](C)O : reported Potency = ? 2.59 µM (active)

---

System: Zika virus NS2B-NS3 protease (linked construct)
Experimental Protocol: Primary screen NINDS Rhodamine qHTS for Zika virus inhibitors (AID 1347160); further: nearly all actives have a fitted effect of over 55% in size
Condition Notes: purified NS2B-NS3 protease, Rhodamine110 substrate fluorescence; series mostly up to 57.1 µM
Inconclusive results are not listed. Calls of active or inactive are those of the source. The call rests on the fitted dose curve; in most records, active means well fitted inhibition curve with a large enough effect; inconclusive means small, poorly fitted or top-dose-only effect; inactive means no such curve, though single readings can be large or run the other way.
Attribute Measured: outcome

CC(C)CCC[C@@H](C)[C@H]1CC[C@H]2[C@@H]3CC(=O)[C@H]4C[C@@H](O)CC[C@]4(C)[C@H]3CC[C@]12C
inactive
CC(=O)N[C@H]1[C@H](O[C@H]2CC[C@@]3(C)C(CC[C@]4(C)C3CC=C3C5CC(C)(C)CC[C@]5(C(=O)O)[C@H](O)C[C@]34C)C2(C)C)O[C@H](CO[C@@H]2OC[C@H](O)[C@H](O)[C@H]2O[C@@H]2OC[C@@H](O)[C@H](O)[C@H]2O)[C@@H](O)[C@@H]1O (stereo partly drawn)
inactive
Nc1ncnc2c1ncn2CCNCCCCCO
inactive

---

Tested on: Tov-21-G
Experimental Protocol: Primary qHTS to identify gynecologic anti-cancer compounds using libraries of approved drugs and bioactive compounds (AID 1345084); further: nearly all actives have a fitted effect of over 55% in size
Condition Notes: Gynecologic cancer cell panel viability, ATPlite luminescence, 48 h; series mostly up to 57.5 µM
Results filed as inconclusive are left out. Calls of active or inactive are those of the source. The call rests on the fitted dose curve; in most records, active means well fitted cell-killing curve with a large enough effect; inconclusive means small, poorly fitted or top-dose-only effect, or effect the other way; inactive means flat fitted curve, though single readings scatter.
Pick one: active, inactive

For this compound, state the assay outcome: CC(C)=CC/C=C(\C)[C@H]1CC[C@]2(C)[C@@H]1[C@H](O)C[C@@H]1[C@@]3(C)CC[C@H](O)C(C)(C)[C@@H]3[C@@H](O[C@@H]3O[C@H](CO)[C@@H](O)[C@H](O)[C@H]3O)C[C@]12C inactive

Query: recorded result category for CCC[C@@H]1O[C@@H]2C[C@H]3[C@@H]4CCC5=CC(=O)C=C[C@]5(C)[C@H]4[C@@H](O)C[C@]3(C)[C@]2(C(=O)CO)O1 in this test inactive

Entry CCc1cccc(CC)c1NC(=O)c1nn(C)c2c1CCc1cnc(Nc3ccc(C(=O)NC4CCN(C)CC4)cc3OC(F)(F)F)nc1-2 : call = ? inactive

Test call for this compound, please: CC1(C)CC[C@]2(C(=O)O[C@@H]3O[C@H](CO)[C@@H](O)[C@H](O)[C@H]3O)CC[C@]3(C)C(=CCC4[C@@]5(C)C[C@@H](O)[C@H](O)C(C)(C)C5CC[C@]43C)C2[C@@H]1O (some centres not stated) inactive

What classification did CCC(CC)C(=O)Nc1sc2c(c1C#N)CCC(C(C)(C)CC)C2 (configuration not stated) end up with in this test? inactive

Given COc1cc(Br)c(S(=O)(=O)Nc2ccc(C(F)(F)F)c(O[C@@H]3CCN(C)C3)c2)cc1OC , state the outcome it received in this test. inactive

For this compound, state the assay outcome: O=C(O)c1cn(C2CC2)c2cc(N3C[C@@H]4C[C@H]3CN4)c(F)cc2c1=O inactive

Please share the test call associated with O=C(CCc1nnc2n(Cc3ccc(Cl)cc3)c(=O)c3ccccc3n12)NCCC1=CCCCC1 . inactive

Dear colleague, could you share the recorded outcome for O=C(O)c1cc(-c2c(-c3ccccc3)nn3ccccc23)n[nH]c1=O when you have a moment? inactive

Test call, this compound: O=C(O)c1c(O)c(-c2ccccc2)nc2ccccc12 inactive

Numbers sourced from PubChem BioAssay (NCATS).
